assay: Volume of distribution in dog at 0.5 mg/kg, iv administered as single dose; assay type: ADME, organism-based, Canis lupus familiaris; parameters: dose 0.5 mg/kg, route intravenous; conditions: in vivo
recorded endpoint: Vd
Returns: string containing the numeric result and its unit.

Fill blank: measured Vd of the compound NC(=O)c1noc([C@H](CCCC2CCCCC2)CC(=O)NO)n1 is ____.
4.6 L/kg

====

experiment: Metabolic stability in rat liver microsomes assessed as half life; assay type: ADME, Microsome
recorded endpoint: half-life

Dear colleague, I am looking for the recorded half-life of the following compound: NC(=O)c1noc([C@H](CCCC2CCCCC2)CC(=O)NO)n1
< 2 min
